measured on: human CB2 receptors (Homo sapiens (Human))
Sequence (P34972 whole entry): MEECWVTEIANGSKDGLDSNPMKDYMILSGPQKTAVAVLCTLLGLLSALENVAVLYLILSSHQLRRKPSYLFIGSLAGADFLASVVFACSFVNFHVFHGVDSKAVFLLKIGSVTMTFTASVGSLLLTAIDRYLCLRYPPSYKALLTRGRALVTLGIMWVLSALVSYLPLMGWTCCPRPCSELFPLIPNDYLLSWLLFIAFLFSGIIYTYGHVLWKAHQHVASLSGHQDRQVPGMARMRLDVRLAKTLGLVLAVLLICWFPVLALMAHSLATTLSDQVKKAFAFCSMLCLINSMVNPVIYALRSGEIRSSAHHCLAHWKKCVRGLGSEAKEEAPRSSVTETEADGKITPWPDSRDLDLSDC
method notes: cAMP assay, CHO cells expressing human CB2 receptors
Assay type: cell-based
experimental conditions: CHO cells expressing human CB2, cAMP; read-out: human CB2 EC50
Reported pEC50 values for a set of molecules
Lab note: report pEC50 as minus log10 of the concentration in molar units, number only.

{"columns": ["molecule", "pEC50"],
 "data": [
  ["CCOC(=O)C(CC)(CC)NC(=O)c1ccc(C2CC2)c(S(=O)(=O)CC(C)C)n1", 8.62],
  ["CC(C)(C)C(NC(=O)c1ccc(C2CC2)c(OCC(F)(F)F)n1)c1nccs1 (centres unmarked)", 6.86],
  ["CCC(CC)(NC(=O)c1ccc(C2CC2)c(O[C@H](CCO)C(F)(F)F)n1)C(=O)NC", 6.01]
]}

Prompt: Recorded pEC50 of `CC(C)C[C@H](NC(=O)c1ccc(Br)c(Oc2ccc(F)cc2)n1)C(N)=O` , please.
Response: 6.71

Prompt: Recorded pEC50 of `O=C(N[C@H](c1cccnc1)C(F)(F)F)c1ccc(C2CC2)c(OCC2CC2)n1` , please.
Response: 7.62

Prompt: Recorded pEC50 of `CC(C)(NC(=O)c1ccc(N2CCCC2)c(OCC2CC2)n1)C1=NCCO1` , please.
Response: 6.95

Prompt: Recorded pEC50 of `COCCOCC(C)(C)NC(=O)c1ccc(C2CC2)c(OCC2CC2)n1` , please.
Response: 6.46

Prompt: Recorded pEC50 of `Cc1nsc(C(C)(C)NC(=O)c2cccc(-c3cccc(Cl)c3)n2)n1` , please.
Response: 6.20

* * *

measured on: human CB1 receptors (Homo sapiens (Human), UniProt P21554)
Sequence (P21554 whole entry): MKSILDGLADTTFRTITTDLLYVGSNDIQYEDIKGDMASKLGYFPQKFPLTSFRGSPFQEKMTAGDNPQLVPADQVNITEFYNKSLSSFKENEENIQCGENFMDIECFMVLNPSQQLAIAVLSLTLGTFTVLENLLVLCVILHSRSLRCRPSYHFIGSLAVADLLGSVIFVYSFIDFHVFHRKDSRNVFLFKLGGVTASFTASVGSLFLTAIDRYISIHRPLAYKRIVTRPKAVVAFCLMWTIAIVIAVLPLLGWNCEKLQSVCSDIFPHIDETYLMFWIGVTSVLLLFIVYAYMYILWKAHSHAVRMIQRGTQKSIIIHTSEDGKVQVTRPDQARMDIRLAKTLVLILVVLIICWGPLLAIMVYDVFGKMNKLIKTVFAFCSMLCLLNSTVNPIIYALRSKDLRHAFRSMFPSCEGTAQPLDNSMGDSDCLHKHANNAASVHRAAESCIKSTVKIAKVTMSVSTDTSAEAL
method notes: cAMP assay, CHO cells expressing human CB1 receptors
Type: cell-based
experimental conditions: CHO cells expressing human CB1, cAMP; read-out: human CB1 EC50
pEC50: −log10 of the molar value.
Reported pEC50 values for a set of compounds

{"columns": ["compound", "pEC50"],
 "data": [
  ["CCC(CC)(NC(=O)c1ccc(C2CC2)c(OCC2CC2)n1)C(=O)NC", "< 5.00"],
  ["Cc1nc(C(C)(C)NC(=O)c2ccc(C3(O)CCC3)c(OCC3CC3)n2)no1", "< 5.00"],
  ["CC(C)(NC(=O)c1ccc(C2CC2)c(OCC2CC2)n1)c1nccs1", 5.79],
  ["CN(C)C(=O)C(NC(=O)c1ccc(N2CC(F)(F)C2)c(OCC2CC2)n1)c1ccccc1 (stereo not drawn)", "< 5.00"]
]}

Prompt: Enter reported pEC50 observed with human CB1 receptors (Homo sapiens (Human), UniProt P21554) for `Cc1nc([C@@H](NC(=O)c2cccc(-c3ccc(F)c(Cl)c3)n2)C2CC2)no1`
Response: < 5.00

Prompt: Enter reported pEC50 observed with human CB1 receptors (Homo sapiens (Human), UniProt P21554) for `Cc1nc([C@H](CC2CC2)NC(=O)c2ccc(C3CC3)c(S(=O)(=O)CC(C)C)n2)no1`
Response: < 5.00

Prompt: Enter reported pEC50 observed with human CB1 receptors (Homo sapiens (Human), UniProt P21554) for `CNC(=O)[C@@H](NC(=O)c1cccc(-c2ccc(F)c(Cl)c2)n1)C(C)(C)C`
Response: 6.94

Prompt: Enter reported pEC50 observed with human CB1 receptors (Homo sapiens (Human), UniProt P21554) for Cc1nc(C(NC(=O)c2ccc(C3CC3)c(OCC3CC3)n2)C2CC2)no1 (stereo not drawn)
Response: < 5.00

Prompt: Enter reported pEC50 observed with human CB1 receptors (Homo sapiens (Human), UniProt P21554) for `CC(C)C[C@H](NC(=O)c1ccc(C(F)(F)F)c(OCC2CC2)n1)C(N)=O`
Response: 5.81

Prompt: Enter reported pEC50 observed with human CB1 receptors (Homo sapiens (Human), UniProt P21554) for `O=C(NCc1ccccn1)c1ccc(N2CC(F)(F)C2)c(OCC2CC2)n1`
Response: < 5.00

Prompt: Enter reported pEC50 observed with human CB1 receptors (Homo sapiens (Human), UniProt P21554) for `CCN(C)C(=O)C(CC)(CC)NC(=O)c1ccc(C2CC2)c(OCC2CC2)n1`
Response: < 5.00

Prompt: Enter reported pEC50 observed with human CB1 receptors (Homo sapiens (Human), UniProt P21554) for `CCC(CC)(NC(=O)c1ccc(C2CC2)c(-c2cccc(Cl)c2)n1)C(=O)NC`
Response: < 5.00

Prompt: Enter reported pEC50 observed with human CB1 receptors (Homo sapiens (Human), UniProt P21554) for `CCC(CC)(NC(=O)c1ccc(C(F)(F)F)c(OCC2CC2)n1)C(=O)N1CC(F)(F)C1`
Response: < 5.00

Prompt: Enter reported pEC50 observed with human CB1 receptors (Homo sapiens (Human), UniProt P21554) for `CC(C)(NC(=O)c1ccc(C2CC2)c(OCC2CC2)n1)c1ccccn1`
Response: 6.15

Prompt: Enter reported pEC50 observed with human CB1 receptors (Homo sapiens (Human), UniProt P21554) for `CC(C)C[C@H](CO)NC(=O)c1ccc(C2CC2)c(OCC2CC2)n1`
Response: < 5.00

Prompt: Enter reported pEC50 observed with human CB1 receptors (Homo sapiens (Human), UniProt P21554) for `Cc1nc([C@H](CC2CC2)NC(=O)c2ccc(N3CC(F)(F)C3)c(-c3cccc(Cl)c3)n2)no1`
Response: < 5.00

Prompt: Enter reported pEC50 observed with human CB1 receptors (Homo sapiens (Human), UniProt P21554) for `O=C(N[C@H](c1cccnc1)C(F)(F)F)c1ccc(C2CC2)c(OCC2CC2)n1`
Response: < 5.00

* * *

measured on: human CB2 receptors (Homo sapiens (Human))
method notes: cAMP assay, CHO cells expressing human CB2 receptors
Format: cell-based
experimental conditions: CHO cells expressing human CB2, cAMP; read-out: human CB2 EC50
pEC50: −log10 of the molar value.
Lab note: anything with pEC50 at or over 7 counts as y; the rest go in n.

Reference set, count: 5
{"columns": ["compound", "discrete label"],
 "data": [
  ["Cc1nc([C@H](CC2CC2)NC(=O)c2ccc(C3CC3)c(S(=O)(=O)CC(C)C)n2)no1 [Example 352]", "n"],
  ["CC(C)(NC(=O)c1ccc(Cl)c(OCC2CC2)n1)c1ncon1 [Example 83]", "n"],
  ["CNC(=O)C(C)(C)NC(=O)c1ccc(C2CC2)c(OCC2CC2)n1 [Example 43]", "n"],
  ["CNC(=O)C(C)(C)NC(=O)c1ccc(N2CC(F)(F)C2)c(OCC2CC2)n1 [Example 87]", "n"],
  ["CC(C)CC(C)(NC(=O)c1ccc(C2CC2)c(OCC2CC2)n1)C(N)=O (centres unmarked) [Example 178]", "y"]
]}

Now for a further compound.
Prompt: Is it the case that Cc1nc(C(NC(=O)c2ccc(N3CC(F)(F)C3)c(OCC3CC3)n2)C2CC2)no1 (centres unmarked) [Example 221] has pEC50 reaching or exceeding 7?
Response: y

* * *

Reported pEC50 values for a set of compounds
measured on: human CB2 receptors (Homo sapiens (Human))
method notes: cAMP assay, CHO cells expressing human CB2 receptors
Type: cell-based
experimental conditions: CHO cells expressing human CB2, cAMP; read-out: human CB2 EC50
Lab note: report pEC50 as minus log10 of the concentration in molar units, number only.

Some entries whose results are on file:
{"columns": ["compound", "measured on", "pEC50"],
 "data": [
  ["CC(C)C[C@@H](CO)NC(=O)c1ccc(N2CCCC2)c(OCC2CC2)n1 [Example 14]", "human CB2 receptors (Homo sapiens (Human))", 8.52],
  ["CC(C)(CCO)NC(=O)c1ccc(C2CC2)c(OCC2CC2)n1 [Example 194]", "human CB2 receptors (Homo sapiens (Human))", 7.00]
]}

Prompt: Recorded pEC50 of CCOC(=O)C(CC)(CC)NC(=O)c1ccc(N2CCC23COC3)c(OCC2CC2)n1 [Example 263] , please.
Response: 8.35

Prompt: Recorded pEC50 of CCC(CC)(NC(=O)c1ccc(C(F)(F)F)c(OCC2CCCO2)n1)C(=O)N(C)C (stereo not shown) [Example 264] , please.
Response: 8.57

* * *

measured on: UniProt:P21554
method notes: cAMP assay, CHO cells expressing human CB1 receptors
Assay type: cell-based
experimental conditions: CHO cells expressing human CB1, cAMP; read-out: human CB1 EC50
pEC50: −log10 of the molar value.
measure name: pEC50

Some entries whose results are on file:
{"columns": ["compound", "measured on", "pEC50"],
 "data": [
  ["CC(C)CS(=O)(=O)c1nc(C(=O)N[C@@H](c2cccnc2)C(F)(F)F)ccc1C1CC1", "UniProt:P21554", "< 5.00"],
  ["Cc1nc(C(C)(C)NC(=O)c2ccc(C3CCCC3)c(-c3cccc(Cl)c3)n2)no1", "UniProt:P21554", "< 5.00"],
  ["O=C(NNC1CCS(=O)(=O)C1)c1ccc(N2CC(F)(F)C2)c(OCC2CC2)n1 (stereo not shown)", "UniProt:P21554", "< 5.00"],
  ["CC(C)(NC(=O)c1ccc(Cl)c(-c2cccc(Cl)c2)n1)c1ncco1", "UniProt:P21554", "< 5.00"],
  ["NC(=O)[C@H](NC(=O)c1ccc(C2CC2)c(OCC2CC2)n1)c1ccccc1", "UniProt:P21554", "< 5.00"]
]}

Prompt: Recorded pEC50 of `O=C(c1ccc(N2CCCC2)c(OCC2CC2)n1)N1CCS(=O)(=O)CC1` , please.
Response: < 5.00

Prompt: Recorded pEC50 of `Cc1nc(C(C)(C)NC(=O)c2ccc(C)c(-c3cccc(Cl)c3)n2)no1` , please.
Response: < 5.00

Prompt: Recorded pEC50 of `Cc1nc(C(C)(C)NC(=O)c2ccc(C3CCCC3)c(OCC3CC3)n2)no1` , please.
Response: 5.67

Prompt: Recorded pEC50 of `Cc1nc(C2(NC(=O)c3ccc(C4CC4)c(OCC4CC4)n3)CCC2)no1` , please.
Response: < 5.00

Prompt: Recorded pEC50 of `CC(C)(NC(=O)c1ccc(Cl)c(OCC2CC2)n1)c1ncon1` , please.
Response: < 5.00
